# system: T1, H3K14Ac
# T1 construct: also called H3K14Ac peptide
# T1 peptide: {Biotin-Ahx}-TARKSTGGK(Ac)APRKQLAT
# methodDescription: phage ELISA, specificity heatmap
No end group written: not given here. *: point of attachment. Biotin = O=C1N[C@H]2[C@H](CS[C@H]2CCCCC(=O)*)N1; Ahx = NCCCCCC(=O)O
quantityName: binding result

phage-displayed Cbx7.V6 (designed binder) SAIFEDVFPVESIRKKRVRKGKVEYLVKWKGWPSEYSTWEPEEHILDPRLVMAYEEKEERDRASGYRKRGPK; no binding
phage-displayed Cbx7.V3 (designed binder) SAICEYIFSVESIRKKRVRKGKVEYLVKWEGWPPEYMTWEPEEHILDPRLVMAYEEKEERDRASGYRKRGPK; no binding
phage-displayed Cbx7.V5 (designed binder) SAIGHDVFPVESIRKKRVRKGKVEYLVKWRDWPEQYSTWEPEEHILDPRLVMAYEEKEERDRASGYRKRGPK; no binding
